Exercise: state measured log10 MIC99 for each of the molecules provided.
# System: Mycobacterium tuberculosis
# procedure text: Antibacterial activity against Mycobacterium tuberculosis H37Rv
# Format: functional
Values reflect log10 of reported MIC99 (µg/mL).

Solved cases (4 shown):
Value of measured log10 MIC99 for the entry CC(C)CCOc1ccc(NC(=S)Nc2ccc(OCC(C)C)cc2)cc1 : -0.41

Value of measured log10 MIC99 for the entry CCCCOc1ccc(NC(=S)Nc2ccc(OCC(C)C)cc2)cc1 : -1.00

Value of measured log10 MIC99 for the entry CC(C)CSc1ccc(NC(=S)Nc2ccc(SCC(C)C)cc2)cc1 : -0.11

Value of measured log10 MIC99 for the entry CCCCOc1ccc(NC(=S)Nc2ccc(Cc3ccccc3)cc2)cc1 : -0.41

List reported log10 MIC99 for each of these molecules:
1. CCCSc1ccc(NC(=S)Nc2ccc(Cc3ccccc3)cc2)cc1
2. CC(C)CCOc1ccc(NC(=S)Nc2ccc(OCCC(C)C)cc2)cc1 [TIOCARLIDE]

1: 0.19; 2: 0.30

List reported log10 MIC99 for each of these molecules:
1. CCCOc1ccc(NC(=S)Nc2ccc(OCCC)cc2)cc1
2. CCCCOc1ccc(NC(=S)Nc2ccc(SCCC)cc2)cc1

1. -0.70
2. -0.70

Value of measured log10 MIC99 for the entry CC(C)CCOc1ccc(NC(=S)Nc2ccc(Cc3ccccc3)cc2)cc1 : -0.70

* * *

Exercise: state measured MIC99 for each of the compounds provided.
# Tested on: Mycobacterium tuberculosis
# procedure text: Antibacterial activity against Mycobacterium tuberculosis H37Rv
# Assay type: functional

Solved cases (3 shown):
Value of measured MIC99 for the entry CCCCOc1ccc(NC(=S)Nc2ccc(SCC(C)C)cc2)cc1 : > 6.25 µg/mL

Value of measured MIC99 for the entry CCCCc1ccc(NC(=S)Nc2ccc(OCCC)cc2)cc1 : < 0.1 µg/mL

Value of measured MIC99 for the entry CCCCOc1ccc(NC(=S)Nc2ccc(CCCC)cc2)cc1 : < 0.1 µg/mL

Others:
Value of measured MIC99 for the entry CCCCOc1ccc(NC(=S)Nc2ccc(OCCC(C)C)cc2)cc1 : < 0.1 µg/mL

Values were extracted from ChEMBL document CHEMBL1146913.
